target: UniProt:P49841; experiment: In Vitro Kinase Inhibition Assay: In vitro kinase assay analysis may be performed using standard techniques described in the art. These techniques are also used by commercial services providers in order to offer in vitro kinase activity assay services, e.g. the assays offered by Millipore Inc. (worldwide website www(dot)millipore.com), ProQinase GmbH (worldwide website www(dot)proqinase.de) and others. All kinase assays were performed in 96-well FlashPlates from Perkin Elmer/NEN (Boston, Mass., USA) in a 50ul reaction volume. The reaction mixture was pipetted in four steps in the following order: 20ul of assay buffer (standard buffer),5ul of ATP solution (in H2O, 5 ul of test compound (in 10% DMSO), 10ul of substrate/10ul of enzyme solution (premixed)The assay for all enzymes contained 60 mM HEPES-NaOH (pH 7.5), 3 mM MgCl2, 3 mM MnCl2, 3uM Na-Orthovanadate, 1.2 mM DTT, 50 ug/ml PEG2000, 1 uM [33P]-ATP (approx. 5x1005 cpm per well).
Sequence (P49841 whole entry): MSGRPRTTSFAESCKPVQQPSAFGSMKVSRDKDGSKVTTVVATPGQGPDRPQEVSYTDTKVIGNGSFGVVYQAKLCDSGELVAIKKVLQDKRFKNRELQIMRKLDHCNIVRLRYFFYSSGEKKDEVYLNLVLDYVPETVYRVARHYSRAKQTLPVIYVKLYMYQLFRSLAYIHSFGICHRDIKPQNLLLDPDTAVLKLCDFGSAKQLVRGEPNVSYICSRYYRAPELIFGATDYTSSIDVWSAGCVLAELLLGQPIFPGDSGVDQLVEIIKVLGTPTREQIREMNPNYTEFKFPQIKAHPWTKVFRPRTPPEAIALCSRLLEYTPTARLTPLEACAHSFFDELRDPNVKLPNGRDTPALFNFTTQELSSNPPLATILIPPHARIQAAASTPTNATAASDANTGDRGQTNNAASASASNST
pIC50: −log10 of the molar value.
PROPERTY_NAME: pIC50

>  <MOLECULAR_STRING>
COc1cc(F)ccc1-c1ccnc(NC(=O)[C@@H]2CC[C@H](NC(C)=O)C2)c1

>  <TARGET_OR_SYSTEM>
UniProt:P49841

>  <PROPERTY_NAME>
pIC50

>  <MEASURED_VALUE>
6.07

$$$$

---

molecular target: Cyclin-dependent kinase 7 (Homo sapiens, UniProt P50613); assay: In Vitro Kinase Inhibition Assay: In vitro kinase assay analysis may be performed using standard techniques described in the art. These techniques are also used by commercial services providers in order to offer in vitro kinase activity assay services, e.g. the assays offered by Millipore Inc. (worldwide website www(dot)millipore.com), ProQinase GmbH (worldwide website www(dot)proqinase.de) and others. All kinase assays were performed in 96-well FlashPlates from Perkin Elmer/NEN (Boston, Mass., USA) in a 50ul reaction volume. The reaction mixture was pipetted in four steps in the following order: 20ul of assay buffer (standard buffer),5ul of ATP solution (in H2O, 5 ul of test compound (in 10% DMSO), 10ul of substrate/10ul of enzyme solution (premixed)The assay for all enzymes contained 60 mM HEPES-NaOH (pH 7.5), 3 mM MgCl2, 3 mM MnCl2, 3uM Na-Orthovanadate, 1.2 mM DTT, 50 ug/ml PEG2000, 1 uM [33P]-ATP (approx. 5x1005 cpm per well).
Sequence (P50613 whole entry): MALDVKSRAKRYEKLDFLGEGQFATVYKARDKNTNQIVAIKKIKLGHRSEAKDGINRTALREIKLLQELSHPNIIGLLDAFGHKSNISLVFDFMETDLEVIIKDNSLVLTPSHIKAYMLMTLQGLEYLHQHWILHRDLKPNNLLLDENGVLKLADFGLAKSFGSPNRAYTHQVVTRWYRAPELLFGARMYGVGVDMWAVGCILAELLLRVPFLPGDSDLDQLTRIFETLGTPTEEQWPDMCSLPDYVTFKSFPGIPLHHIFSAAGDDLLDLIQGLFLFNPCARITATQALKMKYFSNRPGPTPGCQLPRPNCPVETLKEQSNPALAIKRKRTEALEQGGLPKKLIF
PROPERTY_NAME: IC50

>  <MOLECULAR_STRING>
COc1cc(F)ccc1-c1ccnc(NC(=O)[C@@H]2CC[C@H](NC(C)=O)C2)c1

>  <MEASURED_VALUE>
> 5 µM

$$$$

---

biological target: Cyclin-dependent kinase 5 (Homo sapiens); assay: In Vitro Kinase Inhibition Assay: In vitro kinase assay analysis may be performed using standard techniques described in the art. These techniques are also used by commercial services providers in order to offer in vitro kinase activity assay services, e.g. the assays offered by Millipore Inc. (worldwide website www(dot)millipore.com), ProQinase GmbH (worldwide website www(dot)proqinase.de) and others. All kinase assays were performed in 96-well FlashPlates from Perkin Elmer/NEN (Boston, Mass., USA) in a 50ul reaction volume. The reaction mixture was pipetted in four steps in the following order: 20ul of assay buffer (standard buffer),5ul of ATP solution (in H2O, 5 ul of test compound (in 10% DMSO), 10ul of substrate/10ul of enzyme solution (premixed)The assay for all enzymes contained 60 mM HEPES-NaOH (pH 7.5), 3 mM MgCl2, 3 mM MnCl2, 3uM Na-Orthovanadate, 1.2 mM DTT, 50 ug/ml PEG2000, 1 uM [33P]-ATP (approx. 5x1005 cpm per well).
Sequence (Q00535 whole entry): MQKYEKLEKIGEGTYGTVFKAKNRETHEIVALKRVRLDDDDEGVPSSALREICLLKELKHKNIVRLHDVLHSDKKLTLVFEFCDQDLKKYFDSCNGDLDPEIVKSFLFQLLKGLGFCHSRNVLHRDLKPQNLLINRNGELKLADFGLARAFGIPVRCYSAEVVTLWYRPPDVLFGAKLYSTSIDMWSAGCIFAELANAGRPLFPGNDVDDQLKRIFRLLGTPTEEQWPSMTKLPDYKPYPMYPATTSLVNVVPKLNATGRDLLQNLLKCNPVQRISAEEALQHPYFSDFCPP

>  <MOLECULAR_STRING>
COc1cc(F)ccc1-c1ccnc(NC(=O)[C@@H]2CC[C@H](NC(C)=O)C2)c1

>  <IC50 / nM>
1340

$$$$
